Where do these numbers come from? They come from the supplement of paper PMC11196671.

# test_name: MHET released, HPLC; higher = more MHET released; extreme values may be limits of the assay
# conditions_used: PET substrate: aFilm; 60 °C; pH 7.5; 24 h
attribute_measured: MHET released
A bare number is not enough; add the unit after it.

# return recorded MHET released for input SNPYQRGPNPTRSALTATGPFSVATYTVSRLLVSGFGGGVIYYPTGTSLTFGGIAMSPGYTADASSLAWLGRRLASHGFVVLVINTNSRFDGPDSRARQLSAALNYLRTSSPSAVRARLDANRLAVAGHSMGGGGTLRIAEQNPSLKAAVPLTPWHPDKTFNTSVPVLIVGAQADTVAPVSQHAIPFYQNLPSTTPKVYVELCNASHIAPNSPNAAISVYTISWMKLWVDNDTRYRQFLCNVNDPALCDFRTNNRHCQ [LCC-ICCG I6M]
3.6 mM

---

MHET released values for the sequences below.
# test_name: MHET released, HPLC; higher = more MHET released; extreme values may be limits of the assay
# conditions_used: PET substrate: aFilm; 70 °C; pH 5.5; 24 h
The response must be a number in mM with no trailing unit.

Worked examples, 2 sequences total:
| residue_sequence | MHET released, mM |
| --- | --- |
| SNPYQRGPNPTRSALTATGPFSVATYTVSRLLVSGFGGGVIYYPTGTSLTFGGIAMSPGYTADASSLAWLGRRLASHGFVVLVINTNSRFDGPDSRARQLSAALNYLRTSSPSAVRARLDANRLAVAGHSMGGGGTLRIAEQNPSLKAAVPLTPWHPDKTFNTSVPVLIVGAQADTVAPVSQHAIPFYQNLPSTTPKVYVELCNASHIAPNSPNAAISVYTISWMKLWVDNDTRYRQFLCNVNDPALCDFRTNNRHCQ [LCC-ICCG I6M] | 0.236 |
| SNPYQRGPNPTRSALTADGPFSVATYTVSRLSVSGFGGGVIYYPTGTSLTFGGIAMSPGYTADASSLAWLGRRLASHGFVVLVINTNSRFDGPDSRASQLSAALNYLRTSDPSAVRARLDANRLAVAGHSMGGGATLRIAEQNPSLKAAIPLTPWHTQKTFNTSVPVLIVGAEADTVAPVSQHAIPFYQNLPSTTPKVYVELCNASHIAPNSNNAAISVYTISWMKLWVDNDTRYRQFLCNVNDPALCDFRTNNRHCQ [LCC-ICCG DAQI] | 0.189 |

Then this sequence:
# return recorded MHET released for input QTNPYARGPNPTAASLEASAGPFTVRSFTVARPVGYGAGTVYYPTNAGGTVGAIAIVPGYTATQSSINWWGPRLASHGFVVITIDTNSTLDKPESRSSQQMAALRQVASLNGTSSSPIYGKVDTARGGVMGWSMGGGGSLISAANNPSLKAAAVMAPWHSSTNFSSVTVPTLIFACENDRIAPVKEYALPIYDSMSLNAKQFLEICGGSHSCACSGNSNQALIGMKGVAWMKRFMDNDTRYSQFACENPNSTAVCDFRTANCS [HotPETase]
0

---

# test_name: terephthalic acid (TPA) released, HPLC; higher = more TPA released; extreme values may be limits of the assay
# conditions_used: PET substrate: cryPow; 60 °C; pH 8.5; 24 h
terephthalic acid values for the sequences below.
The response must be a number in mM with no trailing unit.

| residue_sequence | terephthalic acid, mM |
| --- | --- |
| ADNPYQRGPDPTNASIEAATGPFAVGTQPIVGASGFGGGQIYYPTDTSQTYGAVVIVPGFISVWAQLAWLGPRLASQGFVVIGIETSTITDLPDPRGDQALAALDWATTRSPVRSRIDRTRLAAAGWSMGGGGLRRAACQRPSLKAIVGMAPWNTEKNWSCVTVPTLFFGGSSDAVASPNDHAKPFYNSITRAEKDYIELCNADHFFPTSANTTMAKYFISWLKRWVDNDTRYTQFLCPGPSTGLFAPVCASMNTCPF [CaPETaseM9] | 0.0338 |
| QTNPYARGPDPTAASLEASAGPFTVRSFTVSRPSGYGAGTVYYPTNAGGTVGAIAIVPGYTARQSSIKWWGPRLASHGFVVITIDTNSTLDQPESRSSQQMAALEQVASLNGTSSSPIYGKVDTARMGVMGWSMGGGGSLISACNNPSLKAAVVQAPWHSSTNFSCVTVPTLIFACENDSIAPVNSSALPIYDSMSENAKQFLEICGGSHSCANTGNSDQALIGKKGVAWMKRFMDNDTRYSTFACENPNSTRVCDFRTANCS [Z1-PETase] | 0.225 |
| SNPYQRGPNPTRSALTADGPFSVRTYTISRLSVSGFGGGVIYYPTGTSLTFGGIAMSPGYTADASSLAWLGRRLASHGFVVLVINTNSRFDGPDSRASQLSAALNYLRTSSPSAVRARLDANRLAVAGHSMGGGGTLRIAEQNPSLKAAVPLTPWHTDKTFNTSVPVLIVGAEADTVAPVSQHAIPFYQNLPSTTPKVYVELCNASHIAPNSPNAAISVYTISWMKLWVDNDTRYRQFLCNVNDPALCDFRTNNRHCQ [LCC-ICCG RIP] | 0.121 |
| QTNPYARGPNPTAASLEASAGPFTVRSFTVSRPSGYGAGTVYYPTNAGGTVGAIAIVPGYTARQSSIKWWGPRLASHGFVVITIDTNSTFDYPSSRSSQQMAALRQVASLNGDSSSPIYGKVDTARMGVMGHSMGGGASLRSAANNPSLKAAIPQAPWDSQTNFSSVTVPTLIFACENDSIAPVNSHALPIYDSMSRNAKQFLEINGGSHSCANSGNSNQALIGKKGVAWMKRFMDNDTRYSTFACENPNSTAVSDFRTANCS [DuraPETase] | 0.0926 |
| ANPYERGPNPTDALLEARSGPFSVSEENVSRLSASGFGGGTIYYPRENNTYGAVAISPGYTGTEASIAWLGERIASHGFVVITIDTITTLDQPDSRAEQLNAALNHMINRASSTVRSRIDSSRLAVMGHSMGGGGSLRLASQRPDLKAAIPLTPWHLNKNWSSVTVPTLIIGADLDTIAPVATHAKPFYNSLPSSISKAYLELDGATHFAPNIPNKIIGKYSVAWLKRFVDNDTRYTQFLCPGPRDGLFGEVEEYRSTCPF [TfCut2] | 0.0159 |

# return recorded terephthalic acid for input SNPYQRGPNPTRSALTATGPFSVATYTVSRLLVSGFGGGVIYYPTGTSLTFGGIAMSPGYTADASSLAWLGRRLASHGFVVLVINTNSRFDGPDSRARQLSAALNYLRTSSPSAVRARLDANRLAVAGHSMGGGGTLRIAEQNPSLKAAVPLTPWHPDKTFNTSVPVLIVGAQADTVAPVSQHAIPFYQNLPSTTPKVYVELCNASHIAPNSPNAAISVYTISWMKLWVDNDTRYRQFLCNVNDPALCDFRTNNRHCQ [LCC-ICCG I6M]
0.0874

# return recorded terephthalic acid for input SNPYQRGPNPTRSALTADGPFSVATYTVSRLSVSGFGGGVIYYPTGTSLTFGGIAMSPGYTADASSLAWLGRRLASHGFVVLVINTNSRFDGPDSRASQLSAALNYLRTSSPSAVRARLDANRLAVAGHSMGGGGTLRIAEQNPSLKAAVPLTPWHTDKTFNTSVPVLIVGAEADTVAPVSQYAIPFYQNLPSTTPKVYVELCNASHIAPNSDNAAISVYTISWMKLWVDNDTRYRQFLCNVNDPALCDFRTNNRHCQ [LCC-A2]
0.174

---

# test_name: PET hydrolysis product formed (TPA+MHET+BHET, UV-Vis) per mg enzyme (mmol/mg enzyme); higher = more PET depolymerisation activity; extreme values may be limits of the assay
# conditions_used: PET substrate: aFilm; 70 °C; pH 8.5; 2 h
attribute_measured: PET hydrolysis product formed
Just the number, please, no unit attached.

| residue_sequence | numeric_value |
| --- | --- |
| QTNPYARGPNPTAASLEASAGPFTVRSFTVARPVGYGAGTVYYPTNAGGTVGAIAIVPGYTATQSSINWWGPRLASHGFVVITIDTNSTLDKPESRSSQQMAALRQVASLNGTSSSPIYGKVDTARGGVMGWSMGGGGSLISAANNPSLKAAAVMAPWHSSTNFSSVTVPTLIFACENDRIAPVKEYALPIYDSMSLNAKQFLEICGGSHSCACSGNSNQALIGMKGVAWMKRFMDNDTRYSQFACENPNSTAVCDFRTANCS [HotPETase] | 0.0193 |

# return recorded PET hydrolysis product formed for input QDNPYERGPDPTEDSIEAIRGPFSVATERVSSFASGFGGGTIYYPRETDEGTFGAVAVAPGFTASQGSMSWYGERVASHGFIVFTIDTNTRLDAPGQRGRQLLAALDYLVERSDRKVRERLDPNRLAVMGHSMGGGGSLEATVMRPSLKASIPLTPWHLDKTWGQVQVPTFIIGAELDTIAPVSTHAKPFYESLPSSLPKAYMELCGATHFAPNIPNTTIAKYVISWLKRFVDEDTRYSQFLCPNPTDRAICEYRSTCPY [Cut190*SS]
0
